method-notes: molar heat capacity at constant pressure
assay-context: 308.2 K; 101.3 kPa; Liquid; Small sample (50 mg) DSC
Property: molar heat capacity at constant pressure; scope: individual compounds
Entry rule: numbers only, all in J/K/mol.

See these solved cases before continuing.
# structure, recorded-measurement
data = [
    ("O", 75.27),
    ("Cc1ccccc1", 160.4),
    ("CNCCN(C)C", 260),
]

Query compound follows.
Q) // molar heat capacity at constant pressure lookup, key: `NCCN1CCNCC1`
A) 290.8

###

method-notes: molar heat capacity at constant pressure
assay-context: 328.2 K; 101.3 kPa; Liquid; Small sample (50 mg) DSC
Property: molar heat capacity at constant pressure; scope: individual compounds
Entry rule: numbers only, all in J/K/mol.

See these solved cases before continuing.
# structure, recorded-measurement
data = [
    ("NCCN1CCNCC1", 298.5),
    ("Cc1ccccc1", 165.5),
]

Q) // molar heat capacity at constant pressure lookup, key: `O`
A) 75.32

Q) Same lookup for `CNCCN(C)C` , please.
A) 272.7
